From: ChEMBL document CHEMBL4354820

- Test target: ATP-dependent translocase ABCB1 (Homo sapiens)
- Sequence (P08183 whole entry): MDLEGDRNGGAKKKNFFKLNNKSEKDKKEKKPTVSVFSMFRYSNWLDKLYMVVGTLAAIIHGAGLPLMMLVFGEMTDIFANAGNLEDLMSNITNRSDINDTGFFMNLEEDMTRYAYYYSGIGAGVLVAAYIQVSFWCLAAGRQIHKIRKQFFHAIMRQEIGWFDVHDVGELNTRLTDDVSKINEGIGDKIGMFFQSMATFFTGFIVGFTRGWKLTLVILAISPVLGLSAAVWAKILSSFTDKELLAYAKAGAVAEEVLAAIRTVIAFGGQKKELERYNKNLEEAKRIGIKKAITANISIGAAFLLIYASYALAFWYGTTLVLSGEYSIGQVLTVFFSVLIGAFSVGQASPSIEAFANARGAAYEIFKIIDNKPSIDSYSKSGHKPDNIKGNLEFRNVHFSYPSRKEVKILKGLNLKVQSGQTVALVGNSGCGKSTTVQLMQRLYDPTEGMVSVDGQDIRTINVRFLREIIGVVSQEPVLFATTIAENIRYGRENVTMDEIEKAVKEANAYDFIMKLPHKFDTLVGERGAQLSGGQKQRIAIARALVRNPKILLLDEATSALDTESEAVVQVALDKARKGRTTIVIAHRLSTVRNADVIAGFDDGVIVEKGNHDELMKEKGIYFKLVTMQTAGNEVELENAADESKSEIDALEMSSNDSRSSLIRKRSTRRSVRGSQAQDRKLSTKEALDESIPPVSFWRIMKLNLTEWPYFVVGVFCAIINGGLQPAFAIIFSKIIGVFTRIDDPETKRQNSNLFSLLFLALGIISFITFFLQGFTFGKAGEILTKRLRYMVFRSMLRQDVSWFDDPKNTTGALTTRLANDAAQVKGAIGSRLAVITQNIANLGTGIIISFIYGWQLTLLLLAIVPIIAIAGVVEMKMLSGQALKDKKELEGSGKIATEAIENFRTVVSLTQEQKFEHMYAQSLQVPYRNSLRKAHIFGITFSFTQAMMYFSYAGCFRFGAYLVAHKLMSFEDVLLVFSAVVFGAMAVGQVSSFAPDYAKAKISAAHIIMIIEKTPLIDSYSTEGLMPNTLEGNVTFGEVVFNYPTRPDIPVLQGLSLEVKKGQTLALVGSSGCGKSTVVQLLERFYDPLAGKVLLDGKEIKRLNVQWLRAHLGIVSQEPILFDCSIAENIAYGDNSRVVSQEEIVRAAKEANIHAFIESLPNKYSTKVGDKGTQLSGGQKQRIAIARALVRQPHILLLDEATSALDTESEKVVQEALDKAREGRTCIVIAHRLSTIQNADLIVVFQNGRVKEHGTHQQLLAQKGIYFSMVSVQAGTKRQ
- Experimental details: Ratio of inhibition of P-gp overexpressed in human DU145-TxR cells assessed as increase in intracellular compound accumulation after 2.5 hrs in presence of tariquidar by LC-MS/MS analysis to Inhibition of P-gp overexpressed in human DU145-TxR cells assessed as decrease in intracellular compound accumulation after 2.5 hrs in absence of tariquidar by LC-MS/MS analysis
- Assay type: cell-based
Attribute measured: Ratio
Give the value as a plain number.

The following compounds have reported results that may help.
Cc1cc(C)c(-c2cc(NC(=O)CSCC(=O)NCc3ccc(F)cc3)n(-c3ccccc3)n2)cc1C = 1.3
Cc1cc(C)c(-c2cc(NC(=O)CSCC(=O)NC34CC5CC(CC(C5)C3)C4)n(-c3ccccc3)n2)cc1C = 1

Task item: What does the data say about its Ratio? Entry: "Cc1cc(C)c(-c2cc(NC(=O)CSCC(=O)c3ccc4c(c3)Cc3ccccc3-4)n(-c3ccccc3)n2)cc1C"
Reply: 1.1

Task item: What does the data say about its Ratio? Entry: "Cc1cc(C)c(-c2cc(NC(=O)CSc3n[nH]c(C4CC4)n3)n(-c3ccccc3)n2)cc1C"
Reply: 1

====

- Test target: ATP-dependent translocase ABCB1 (Homo sapiens)
- Experimental details: Reversal of P-gp mediated multidrug resistance in human DU145-TxR cells overexpressing P-gp assessed as potentiation of paclitaxel-induced cytotoxicity by measuring fold reduction paclitaxel IC50 at 3 uM after 48 hrs by MTT assay relative to paclitaxel alone
- Format: cell-based
# fold change (FC) per entry
Give the value as a plain number.

Cc1cc(C)c(-c2cc(NC(=O)CSc3n[nH]c(C4CC4)n3)n(-c3ccccc3)n2)cc1C = 3

Task item: What does the data say about its fold change (FC)? Entry: "Cc1cc(C)c(-c2cc(NC(=O)CSCC(=O)Nc3ccc4ncsc4c3)n(-c3ccccc3)n2)cc1C"
Reply: 12

Task item: What does the data say about its fold change (FC)? Entry: "Cc1cc(C)c(-c2cc(NC(=O)CSCC(=O)NC(c3ccccc3)c3ccccc3)n(-c3ccccc3)n2)cc1C"
Reply: 13

Task item: What does the data say about its fold change (FC)? Entry: "Cc1cc(C)c(-c2cc(NC(=O)CSCC(=O)NC34CC5CC(CC(C5)C3)C4)n(-c3ccccc3)n2)cc1C"
Reply: 9.2

Task item: What does the data say about its fold change (FC)? Entry: "Cc1cc(C)c(-c2cc(NC(=O)CSCC(=O)N3c4ccccc4CCc4ccccc43)n(-c3ccccc3)n2)cc1C"
Reply: 13

====

# fold change (FC) per entry
- Test target: ATP-dependent translocase ABCB1 (Homo sapiens)
- Experimental details: Reversal of P-gp mediated multidrug resistance in human DU145-TxR cells overexpressing P-gp assessed as potentiation of paclitaxel-induced cytotoxicity by measuring fold reduction paclitaxel IC50 at 3 uM after 48 hrs by MTT assay relative to parent compound
- Assay type: cell-based
Give the value as a plain number.

The following compounds have reported results that may help.
COc1cc(NC(=O)CSCC(=O)Nc2cc(-c3cc(C)c(C)cc3C)nn2-c2ccccc2)cc(OC)c1OC = 3.4
Cc1cc(C)c(-c2cc(NC(=O)CSCC(=O)Nc3ccc4ccccc4c3)n(-c3ccccc3)n2)cc1C = 4.1
Cc1cc(C)c(-c2cc(NC(=O)CSCC(=O)Nc3ccc4ncsc4c3)n(-c3ccccc3)n2)cc1C = 3.7

// moving on: another record for fold change (FC)
Task item: What does the data say about its fold change (FC)? Entry: "Cc1cc(C)c(-c2cc(NC(=O)CSc3cccc(NC(=O)c4cncc(Br)c4)c3)n(-c3ccccc3)n2)cc1C"
Reply: 11
